# target_or_system: wild-type CggR (Bacillus subtilis)
# Sequence (O32253 1-340): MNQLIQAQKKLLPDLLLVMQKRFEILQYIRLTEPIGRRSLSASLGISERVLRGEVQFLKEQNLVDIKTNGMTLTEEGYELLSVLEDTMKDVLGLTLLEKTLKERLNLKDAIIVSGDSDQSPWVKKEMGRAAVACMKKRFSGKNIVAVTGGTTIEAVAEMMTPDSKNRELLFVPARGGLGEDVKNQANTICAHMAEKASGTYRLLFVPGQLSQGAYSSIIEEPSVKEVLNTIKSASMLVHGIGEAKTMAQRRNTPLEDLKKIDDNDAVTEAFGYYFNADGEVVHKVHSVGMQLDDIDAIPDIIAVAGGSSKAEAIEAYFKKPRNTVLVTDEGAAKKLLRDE
measurement_type: pKd
When answering, recall that pKd equals minus log10 of the concentration in mol/L, and write that number alone.

Recorded pKd for O=P(O)(O)OC[C@H]1OC(O)(COP(=O)(O)O)[C@@H](O)[C@@H]1O (stereo partly shown) [FBP, fructose-1,6-bisphosphate] with wild-type CggR (Bacillus subtilis), please?
3.00
